Tested on: MS2 coat protein
Assay: apparent Kd, MS2 coat protein; higher = weaker binding; RNA-MaP array; FMN 200 µM where present
Details: ligand present: flavin mononucleotide; designed as: ON switch for flavin mononucleotide
Please enter Fulfilled where apparent Kd is greater than or equal to 30 nM, and Not fulfilled where it is lower.

{"construct_sequence": "UUACAUACAAAGGUACAUGAGGAUCACCCAUGUUUGUUGGGAAGAAGGGUAACAAUACUACACAUACAGGAUAUUUCACAAAUA", "study_system": "MS2 coat protein", "assigned_label": "Fulfilled"}
{"construct_sequence": "UACAAUCUAUCUGAGGAUAUCAUGAAAAAAACAUGAGGAUCACCCAUGUGCAGGAAAACUGCAUAUGAGAAGGCAGAUAGAUUGU", "study_system": "MS2 coat protein", "assigned_label": "Not fulfilled"}
{"construct_sequence": "GUAUAUAUAUAAGGAUAUAAGUCUAGGACAUGAGGAUCACCCAUGUGUGUCUUAGAAGGUAUAUAUGUAAUACUGUUACAGUAA", "study_system": "MS2 coat protein", "assigned_label": "Not fulfilled"}
{"construct_sequence": "CGCGAACAGGCUAACAUGAGGAUCACCCAUGUGGACUCAUGGUAGGAUAUCGGGAAGGAGGAAACCGAGAAGGGCCGGUGAGCU", "study_system": "MS2 coat protein", "assigned_label": "Fulfilled"}
{"construct_sequence": "UUUAGUUGCGGGCAGGAUAUGUAUUAAAAUACAUGAGGAUCACCCAUGUGCGGGUAUAACACCCGACAGAAGGGCCAAUCGCGAC", "study_system": "MS2 coat protein", "assigned_label": "Fulfilled"}
{"construct_sequence": "UACGACUUCGUAGGAUAUGUAUUUCAUUUCUACAUGAGGAUCACCCAUGUUUGCAUUUUUUUUUGACAGAAGGACGUAAUCGUA", "study_system": "MS2 coat protein", "assigned_label": "Not fulfilled"}

Cited source: the EternaBench riboswitch data
